Entries and their measured Ratio follow.
# Tested on: Staphylococcus aureus
# Assay Summary: Ratio of ciprofloxacin MIC to compound MIC for hospital methicillin-resistant Staphylococcus aureus 522/11 after 18 hrs by twofold serial microdilution method
# Format: functional
Kindly provide the number alone.

Field: example entries. Status: answers known.
# Compound Smiles, Ratio
records = [
    ("FC(F)(F)c1cccc(NC(S)=NCc2ccccc2)c1", 128),
    ("Fc1cccc(NC(=S)Nc2cccc(C(F)(F)F)c2)c1", 128),
    ("Fc1ccc(NC(=S)Nc2cccc(C(F)(F)F)c2)cc1Cl", 128),
    ("FC(F)(F)c1cccc(NC(=S)NCCc2ccccc2)c1", 128),
    ("FC(F)(F)c1cccc(NC(=S)Nc2ccc(Cl)cc2)c1", 128),
]

Specify Ratio for FC(F)(F)c1cccc(NC(=S)Nc2cccc(Br)c2)c1 and stop.
128

In one line, give reported Ratio of the entry FC(F)(F)c1cccc(NC(S)=Nc2ccc(Cl)c(Cl)c2)c1 .
128

* * *

# CC50 annotations
# Assay Summary: Cytotoxicity against human MT4 cells
# Format: cell-based
Kindly provide the numeric value in µM only, without the unit symbol.

# Compound Smiles, Result Units, CC50
rows = [
    ("FC(F)(F)c1cccc(NC(=S)Nc2ccc(Cl)cc2)c1", "µM", 6.8),
]

Return value of CC50 for input C=C(C)CNC(=S)Nc1cccc(C(F)(F)F)c1 , no commentary.
43

# return recorded CC50 for entry N#Cc1ccc(NC(=S)Nc2cccc(C(F)(F)F)c2)cc1
7

Give the value of CC50 reported for the following: FC(F)(F)c1cccc(NC(=S)NCCc2ccccc2)c1
8.8

Determine from records and report CC50 for FC(F)(F)c1cccc(NC(=S)NC2CCCCC2)c1
45

Hello, please tell me recorded CC50 for this one: CCOC(=O)c1ccc(NC(=S)Nc2cccc(C(F)(F)F)c2)cc1
23

* * *

# Tested on: Staphylococcus aureus
# Assay Summary: Antimicrobial activity against hospital methicillin-resistant Staphylococcus aureus 79/05 after 18 hrs by twofold serial microdilution method
# Type: functional
# Condition Summary: 79/05, 18 h
Metric: MIC (µg/mL)
Numbers only here, please. The scale is µg/mL.

Guide cases for MIC, answers given:
# Compound Smiles, Tested Target, Metric, Readout Value
records = [
    ("FC(F)(F)c1cccc(NC(=S)Nc2cccc(Br)c2)c1", "Staphylococcus aureus", "MIC", 0.5),
    ("FC(F)(F)c1cccc(NC(=S)NCCc2ccccc2)c1", "Staphylococcus aureus", "MIC", 16),
    ("FC(F)(F)c1cccc(NC(=S)Nc2ccc(Cl)cc2)c1", "Staphylococcus aureus", "MIC", 16),
    ("Fc1cccc(NC(=S)Nc2cccc(C(F)(F)F)c2)c1", "Staphylococcus aureus", "MIC", 8),
    ("Fc1ccc(NC(=S)Nc2cccc(C(F)(F)F)c2)cc1Cl", "Staphylococcus aureus", "MIC", 1),
]

Report MIC under test system Staphylococcus aureus for FC(F)(F)c1cccc(NC(S)=NCc2ccccc2)c1 .
16

# return MIC of O=C(O)c1cn(C2CC2)c2cc(N3CCNCC3)c(F)cc2c1=O (system: Staphylococcus aureus)
64

Jot down MIC (Staphylococcus aureus) of FC(F)(F)c1cccc(NC(S)=Nc2ccc(Cl)c(Cl)c2)c1 .
2

* * *

Quick reference: zone of inhibition at 400 µg/disc of the listed items.
# System: Enterococcus faecalis
# Assay Summary: Antimicrobial activity against Enterococcus faecalis ATCC 29212 at 400 ug after 18 hrs by disc-diffusion method
# Assay type: functional
# Condition Summary: ATCC 29212, 18 h, read-out: IZ
Give the value in mm but do not write mm after it.

Some solved entries appear below for comparison.
# Compound Smiles, Readout Value
rows = [
    ("COC(=O)c1ccccc1NC(=S)Nc1cccc(C(F)(F)F)c1", 14),
    ("Fc1ccccc1NC(=S)Nc1cccc(C(F)(F)F)c1", 13),
]

Give the value of zone of inhibition at 400 µg/disc reported for the following: FC(F)(F)c1cccc(NC(=S)Nc2cccc(Br)c2)c1
18

Supply reported zone of inhibition at 400 µg/disc belonging to this molecule: Fc1ccc(NC(=S)Nc2cccc(C(F)(F)F)c2)cc1Cl
20

Report zone of inhibition at 400 µg/disc, nothing else, for this molecule: FC(F)(F)c1cccc(NC(=S)Nc2cccc(Cl)c2)c1
20

Answer with the recorded zone of inhibition at 400 µg/disc of Fc1cccc(NC(=S)Nc2cccc(C(F)(F)F)c2)c1 only.
14

* * *

# Test system: Bacillus cereus
# Assay Summary: Antimicrobial activity against Bacillus cereus ATCC 11778 at 400 ug after 18 hrs by disc-diffusion method
# Assay type: functional
# Condition Summary: ATCC 11778, 18 h, read-out: IZ
Lab note: anything with zone of inhibition at 400 µg/disc at or over 20 mm counts as TRUE; the rest go in FALSE.

# Compound Smiles, Label Value
rows = [
    ("Fc1ccc(NC(=S)Nc2cccc(C(F)(F)F)c2)cc1Cl", "TRUE"),
    ("Fc1ccccc1NC(=S)Nc1cccc(C(F)(F)F)c1", "FALSE"),
    ("Fc1ccc(NC(=S)Nc2cccc(C(F)(F)F)c2)cc1", "TRUE"),
    ("CSCCCNC(=S)Nc1cccc(C(F)(F)F)c1", "FALSE"),
    ("CCNC(=S)Nc1cccc(C(F)(F)F)c1", "FALSE"),
]

Does Fc1cccc(NC(=S)Nc2cccc(C(F)(F)F)c2)c1 have a reported zone of inhibition at 400 µg/disc of at least 20 mm?
FALSE

State whether the measured zone of inhibition at 400 µg/disc reaches 20 mm, counting equality as reaching it, for FC(F)(F)c1cccc(NC(=S)NCCc2ccccc2)c1
FALSE

* * *

# Assay Summary: Cytotoxicity against BHK cells assessed as cell viability after 48 to 96 hrs by MTT assay
# Type: cell-based, Mesocricetus auratus
# Condition Summary: hamster
Decision: CC50 beneath 10 µM gives Yes; CC50 meeting or exceeding 10 µM gives No.

Examples with answers:
# Compound Smiles, Label Value
records = [
    ("Fc1ccc(NC(=S)Nc2cccc(C(F)(F)F)c2)cc1", "No"),
    ("FC(F)(F)c1cccc(NC(S)=NCc2ccccc2)c1", "No"),
    ("FC(F)(F)c1cccc(NC(=S)NCc2ccco2)c1", "No"),
]

hey, is CC50 for FC(F)(F)c1cccc(NC(=S)NCCc2ccccc2)c1 lower than 10 µM or not?
No

* * *

# Assay Summary: Cytotoxicity against bovine MDBK cells assessed as cell viability after 48 to 96 hrs by MTT assay
# Assay type: cell-based, Bos taurus
# Condition Summary: cattle
Metric: CC50

# Molecule, CC50
rows = [
    ("FC(F)(F)c1cccc(NC(=S)Nc2ccc(I)cc2)c1", "9.5 µM"),
    ("CCCC[C@H]1CC[C@H](c2ccc(NC(=S)Nc3cccc(C(F)(F)F)c3)cc2)CC1", "10 µM"),
    ("CCCCc1ccc(NC(=S)Nc2cccc(C(F)(F)F)c2)c(C)c1", "10 µM"),
]

State its CC50: FC(F)(F)c1cccc(NC(S)=NCCN2CCOCC2)c1
> 100 µM

Tell us which CC50 value is on record for COC(=O)c1ccccc1NC(=S)Nc1cccc(C(F)(F)F)c1
> 100 µM

Give me measured CC50, please, for this molecule: Fc1ccc(NC(=S)Nc2cccc(C(F)(F)F)c2)cc1Cl
11 µM

Give recorded CC50. O=[N+]([O-])c1ccc(NC(=S)Nc2cccc(C(F)(F)F)c2)cc1
10 µM

Dear colleague, please send me the reported CC50 for C[C@@]1(O)[C@H](O)[C@@H](CO)O[C@H]1n1cnc2c(=O)[nH]c(N)nc21 [2'-B-METHYL-GUANOSINE] when you can.
> 10 µM

Output measured CC50 for this item: FC(F)(F)c1cccc(NC(=S)Nc2cccc(Cl)c2)c1
19 µM

For the molecule N#Cc1ccc(NC(=S)Nc2cccc(C(F)(F)F)c2)cc1 , give its reported CC50.
10 µM

* * *

Each entry below lists one item and its recorded MIC value.
# System: Staphylococcus epidermidis
# Assay Summary: Antimicrobial activity against Staphylococcus epidermidis ATCC 12228 after 18 hrs by twofold serial microdilution method
# Assay type: functional
# Condition Summary: ATCC 12228, 18 h
# unit: µg/mL | format: bare number

These solved cases illustrate the format of a correct answer.
# Compound Smiles, Result Units, MIC
records = [
    ("N#Cc1ccc(NC(=S)Nc2cccc(C(F)(F)F)c2)cc1", "µg/mL", 64),
    ("O=[N+]([O-])c1ccc(NC(=S)Nc2cccc(C(F)(F)F)c2)cc1", "µg/mL", 64),
]

Consider the molecule FC(F)(F)c1cccc(NC(=S)Nc2ccccc2)c1 tested on Staphylococcus epidermidis; state its MIC.
32

Would you please give the reported MIC of Fc1ccccc1NC(=S)Nc1cccc(C(F)(F)F)c1 with Staphylococcus epidermidis?
16
